- experimental-target: His-tagged recombinant human Gal-3 (hGal-3) (Homo sapiens (Human), UniProt P17931)
- Sequence (P17931 whole entry): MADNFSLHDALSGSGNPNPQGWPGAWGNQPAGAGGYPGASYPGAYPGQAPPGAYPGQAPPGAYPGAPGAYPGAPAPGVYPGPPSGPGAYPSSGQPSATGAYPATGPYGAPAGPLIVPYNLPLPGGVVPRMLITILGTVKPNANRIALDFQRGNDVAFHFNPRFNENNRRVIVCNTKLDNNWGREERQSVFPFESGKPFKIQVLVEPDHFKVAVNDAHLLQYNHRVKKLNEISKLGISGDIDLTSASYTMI
- test: Gal-3 HTRF assay (His-tagged hGal-3 binding to B-ASF);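 further: compounds preincubated 30 min with hGal-3, then 1 h with B-ASF, detection via terbium anti-His antibody and streptavidin d2. Control with B-ASF counts as full signal, omitting B-ASF as background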
- settings: HTRF, hGal-3 15 nM, B-ASF 15 nM; read-out: hGal-3 IC50
pIC50: −log10 of the molar value.

[
  {
    "entry-smiles": "Cc1nc2ccc(-n3ncnc3[C@@H]3O[C@H](CO)[C@H](O)[C@H](n4cc(-c5ccc(F)cc5)nn4)[C@H]3O)cc2s1",
    "pIC50": 6.48
  },
  {
    "entry-smiles": "CC(=O)Nc1cccc(-n2cnnc2[C@@H]2O[C@H](CO)[C@H](O)[C@H](n3cc(-c4cc(F)c(F)c(F)c4)nn3)[C@H]2O)c1",
    "pIC50": 6.05
  },
  {
    "entry-smiles": "OC[C@H]1O[C@@H](c2ncnn2-c2cc(Cl)ccc2F)C[C@@H](n2cc(-c3cc(F)c(F)c(F)c3)nn2)[C@H]1O",
    "pIC50": 6.60
  },
  {
    "entry-smiles": "Cc1nc([C@@H]2O[C@H](CO)[C@H](O)[C@H](n3cc(-c4cccc(F)c4)nn3)[C@H]2O)oc1C(=O)O",
    "pIC50": 5.20
  },
  {
    "entry-smiles": "COc1ccc(Cl)cc1-n1cnnc1[C@@H]1O[C@H](CO)[C@H](O)[C@H](n2cc(-c3cc(F)c(F)c(F)c3)nn2)[C@H]1O",
    "pIC50": 6.96
  },
  {
    "entry-smiles": "OC[C@H]1O[C@@H](c2ncnn2-c2ccc(C(F)(F)F)cc2)[C@H](O)[C@@H](n2cc(-c3cc(F)c(F)c(F)c3)nn2)[C@H]1O",
    "pIC50": 6.25
  },
  {
    "entry-smiles": "OC[C@H]1O[C@@H](c2nncn2Cc2ccc(Cl)c(Cl)c2)[C@H](O)[C@@H](n2cc(-c3cc(F)c(F)c(F)c3)nn2)[C@H]1O",
    "pIC50": 5.55
  },
  {
    "entry-smiles": "OC[C@H]1O[C@@H](c2oncc2-c2ccc(Cl)c(Cl)c2)[C@H](O)[C@@H](n2cc(-c3cc(F)c(F)c(F)c3)nn2)[C@H]1O",
    "pIC50": 5.40
  },
  {
    "entry-smiles": "OC[C@H]1O[C@@H](c2ncnn2Cc2ccccc2)[C@H](O)[C@@H](n2cc(-c3cc(F)c(F)c(F)c3)nn2)[C@H]1O",
    "pIC50": 5.83
  },
  {
    "entry-smiles": "Cc1nc2ccc(-n3ncnc3[C@@H]3O[C@H](CO)[C@H](O)[C@H](n4cc(C(N)=O)nn4)[C@H]3O)cc2s1",
    "pIC50": 5.39
  },
  {
    "entry-smiles": "OC[C@H]1O[C@@H](c2nn[nH]c2-c2cccc(Cl)c2)[C@H](O)[C@@H](n2cc(-c3cc(F)c(F)c(F)c3)nn2)[C@H]1O",
    "pIC50": 5.52
  },
  {
    "entry-smiles": "O=C(O)CO[C@@H]1[C@@H](n2cc(-c3cc(F)c(F)c(F)c3)nn2)[C@@H](O)[C@@H](CO)O[C@H]1n1nncc1-c1cccc(Cl)c1",
    "pIC50": 5.07
  },
  {
    "entry-smiles": "OC[C@H]1O[C@@H](n2nncc2-c2ccc(Cl)c(Cl)c2)C[C@@H](n2cc(-c3cc(F)c(F)c(F)c3)nn2)[C@H]1O",
    "pIC50": 6.06
  },
  {
    "entry-smiles": "OC[C@H]1O[C@@H](c2nncn2-c2ccccc2F)[C@H](O)[C@@H](n2cc(-c3cc(F)c(F)c(F)c3)nn2)[C@H]1O",
    "pIC50": 6.46
  },
  {
    "entry-smiles": "NS(=O)(=O)c1ccc(-n2cnnc2[C@@H]2O[C@H](CO)[C@H](O)[C@H](n3cc(-c4cc(F)c(F)c(F)c4)nn3)[C@H]2O)cc1",
    "pIC50": 6.17
  },
  {
    "entry-smiles": "OC[C@H]1O[C@@H](c2nncn2-c2ccccc2OC(F)(F)F)[C@H](O)[C@@H](n2cc(-c3cc(F)c(F)c(F)c3)nn2)[C@H]1O",
    "pIC50": 6.52
  },
  {
    "entry-smiles": "OC[C@H]1O[C@@H](c2nncn2-c2cccc(C(F)(F)F)c2)[C@H](O)[C@@H](n2cc(-c3cc(F)c(F)c(F)c3)nn2)[C@H]1O",
    "pIC50": 6.48
  },
  {
    "entry-smiles": "CC(=O)Nc1ccc(-n2cnnc2[C@@H]2O[C@H](CO)[C@H](O)[C@H](n3cc(-c4cc(F)c(F)c(F)c4)nn3)[C@H]2O)cc1O",
    "pIC50": 6.08
  },
  {
    "entry-smiles": "COCCO[C@@H]1[C@@H](n2cc(-c3cc(F)c(F)c(F)c3)nn2)[C@@H](O)[C@@H](CO)O[C@H]1n1nncc1-c1cccc(Cl)c1",
    "pIC50": 6.24
  },
  {
    "entry-smiles": "CO[C@@H]1[C@@H](n2cc(-c3cc(F)c(F)c(F)c3)nn2)[C@@H](O)[C@@H](CO)O[C@H]1c1ncnn1-c1ccc2ncsc2c1",
    "pIC50": 7.40
  },
  {
    "entry-smiles": "COc1cccc(-n2cnnc2[C@@H]2O[C@H](CO)[C@H](O)[C@H](n3cc(-c4cc(F)c(F)c(F)c4)nn3)[C@H]2O)n1",
    "pIC50": 6.24
  },
  {
    "entry-smiles": "Cc1nc2ccc(-n3cnnc3[C@@H]3O[C@H](CO)[C@H](O)[C@H](n4cc(-c5cc(F)c(F)c(F)c5)nn4)[C@H]3O)cc2[nH]1",
    "pIC50": 6.48
  },
  {
    "entry-smiles": "Cn1cnc2ccc(-n3ncnc3[C@@H]3O[C@H](CO)[C@H](O)[C@H](n4cc(-c5cc(F)c(F)c(F)c5)nn4)[C@H]3O)cc21",
    "pIC50": 6.96
  },
  {
    "entry-smiles": "OC[C@H]1O[C@@H](c2nncn2-c2cccc(-c3ccccc3)c2)[C@H](O)[C@@H](n2cc(-c3cc(F)c(F)c(F)c3)nn2)[C@H]1O",
    "pIC50": 6.33
  }
]
